Each entry below carries its recorded Ki.
- measured-target: Sushi domains (SD1/2) protein of the GABAB1a (GB1a) subunit, recombinant
- Sequence (Q9Z0U4 29-158): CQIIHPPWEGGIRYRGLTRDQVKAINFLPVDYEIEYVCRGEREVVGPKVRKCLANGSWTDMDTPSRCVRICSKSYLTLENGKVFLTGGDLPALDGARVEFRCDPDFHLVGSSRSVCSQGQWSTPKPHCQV
- test-name: FP competition
Starred links: 1 amine or outer side, 2 acyl side, 3 side chain; linkers in the order of their positions; H or OH if unused. Non-standard residues stand in square brackets, D forms with d. Obtyr = O-benzyl-L-tyrosine, O=C([C@H](Cc1ccc(OCc2ccccc2)cc1)N[*:1])[*:2]; Oetyr = O-ethyl-L-tyrosine, CCOc1ccc(C[C@H](N[*:1])C(=O)[*:2])cc1; 2Nal = N[C@@H](Cc1ccc2ccccc2c1)C(=O)O
Your answer should be a plain number; it is taken to be in nM.

>  <binder>
Ac-EDDSDVWWGGADTD-NH2 [APPWT (Ac-…-NH2)]

>  <Ki [nM]>
557

$$$$
>  <binder>
Ac-EDDSWIWWYGADTD-NH2 [peptide 28 (Ac-…-NH2)]

>  <Ki [nM]>
18

$$$$
>  <binder>
Ac-EDDD[2Nal]IDWGPTSDDD-NH2 (SMILES CC[C@H](C)[C@H](NC(=O)[C@H](Cc1ccc2ccccc2c1)NC(=O)[C@H](CC(=O)O)NC(=O)[C@H](CC(=O)O)NC(=O)[C@H](CC(=O)O)NC(=O)[C@H](CCC(=O)O)NC(C)=O)C(=O)N[C@@H](CC(=O)O)C(=O)N[C@@H](Cc1c[nH]c2ccccc12)C(=O)NCC(=O)N1CCC[C@H]1C(=O)N[C@H](C(=O)N[C@@H](CO)C(=O)N[C@@H](CC(=O)O)C(=O)N[C@@H](CC(=O)O)C(=O)N[C@@H](CC(=O)O)C(N)=O)[C@@H](C)O) [peptide 21 (Ac-EDDD(2Nala)…-NH2)]

>  <Ki [nM]>
5.3

$$$$
>  <binder>
Ac-EDDD[Oetyr]IDWYDSDDD-NH2 (SMILES CCOc1ccc(C[C@H](NC(=O)[C@H](CC(=O)O)NC(=O)[C@H](CC(=O)O)NC(=O)[C@H](CC(=O)O)NC(=O)[C@H](CCC(=O)O)NC(C)=O)C(=O)N[C@H](C(=O)N[C@@H](CC(=O)O)C(=O)N[C@@H](Cc2c[nH]c3ccccc23)C(=O)N[C@@H](Cc2ccc(O)cc2)C(=O)N[C@@H](CC(=O)O)C(=O)N[C@@H](CO)C(=O)N[C@@H](CC(=O)O)C(=O)N[C@@H](CC(=O)O)C(=O)N[C@@H](CC(=O)O)C(N)=O)[C@@H](C)CC)cc1) [peptide 32 (Ac-EDDD(Oetyr)…-NH2)]

>  <Ki [nM]>
5.3

$$$$
>  <binder>
Ac-EDDYIDWGPTSDDD-NH2 [peptide 19 (Ac-…-NH2)]

>  <Ki [nM]>
3.8

$$$$

query: Annotate the binder Ac-EDDDWIDWGPTSDDD-NH2 [peptide 17 (Ac-…-NH2)] with its measured Ki.
result: 4

query: Tell me measured Ki for Ac-EDDD[Obtyr]IDWYDSDDD-NH2 (SMILES CC[C@H](C)[C@H](NC(=O)[C@H](Cc1ccc(OCc2ccccc2)cc1)NC(=O)[C@H](CC(=O)O)NC(=O)[C@H](CC(=O)O)NC(=O)[C@H](CC(=O)O)NC(=O)[C@H](CCC(=O)O)NC(C)=O)C(=O)N[C@@H](CC(=O)O)C(=O)N[C@@H](Cc1c[nH]c2ccccc12)C(=O)N[C@@H](Cc1ccc(O)cc1)C(=O)N[C@@H](CC(=O)O)C(=O)N[C@@H](CO)C(=O)N[C@@H](CC(=O)O)C(=O)N[C@@H](CC(=O)O)C(=O)N[C@@H](CC(=O)O)C(N)=O) [peptide 33 (Ac-EDDD(Obtyr)…-NH2)] please.
result: 9.3

query: Supply reported Ki belonging to this binder: Ac-ETEFIAWGPTGDED-NH2 [AJAP-1WT (Ac-…-NH2)]
result: 31

query: Answer with the recorded Ki of Ac-ETEFIAWYGADTD-NH2 [peptide 37 (Ac-…-NH2)] only.
result: 95

query: Supply measured Ki of Ac-EDDYIDWYDSDDD-NH2 [peptide 18 (Ac-…-NH2)] in your reply.
result: 4.6

query: Please look at this binder and report its Ki: EDDDAIDWYDSDDD (N-terminal acetyl; C-terminal amide; 3-(2-naphthyl)-L-alanine (2Nala) at 5) [peptide 20 (Ac-EDDD(2Nala)…-NH2)]
result: 1.5

query: Could you please provide reported Ki for Ac-EDDDWIDWYDSDDD-NH2 [peptide 16 (Ac-…-NH2)] ? Thanks!
result: 3.2

query: Look up Ki of Ac-EDDSWIWWGPTGDED-NH2 [peptide 27 (Ac-…-NH2)] and report it.
result: 16

query: Hello, please tell me recorded Ki for this one: Ac-EDDD[Oetyr]IDWGPTSDDD-NH2 (SMILES CCOc1ccc(C[C@H](NC(=O)[C@H](CC(=O)O)NC(=O)[C@H](CC(=O)O)NC(=O)[C@H](CC(=O)O)NC(=O)[C@H](CCC(=O)O)NC(C)=O)C(=O)N[C@H](C(=O)N[C@@H](CC(=O)O)C(=O)N[C@@H](Cc2c[nH]c3ccccc23)C(=O)NCC(=O)N2CCC[C@H]2C(=O)N[C@H](C(=O)N[C@@H](CO)C(=O)N[C@@H](CC(=O)O)C(=O)N[C@@H](CC(=O)O)C(=O)N[C@@H](CC(=O)O)C(N)=O)[C@@H](C)O)[C@@H](C)CC)cc1) [peptide 34 (Ac-EDDD(Oetyr)…-NH2)]
result: 6.5

query: Look up Ki of Ac-EDDSWIDWGPTGDED-NH2 [peptide 29 (Ac-…-NH2)] and report it.
result: 5.6

query: Hello, please tell me recorded Ki for this one: Ac-ETEFIAWGGADTD-NH2 [hybrid peptide Y (Ac-…-NH2)]
result: 354

query: Check the records and state Ki for Ac-EDDSWIDWYGADTD-NH2 [peptide 30 (Ac-…-NH2)]
result: 11

query: Quickly give me recorded Ki for Ac-EDDSDVWWGPTGDED-NH2 [hybrid peptide X (Ac-…-NH2)]
result: 62
